The following compounds are listed with their measured inhibition values.
Tested Target: 6-phosphogluconate dehydrogenase, decarboxylating (Homo sapiens)
Test Description: 6PGD enzyme inhibitors, primary screen, biochemical, human, recombinant enzyme, NADPH absorbance (AID 1159550)
Assay Conditions: recombinant 6PGD, NADPH absorbance 341 nm; at 10 µM; stronger effect = higher value
The source made the active and inactive calls.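 Rule for the calls: active = at least 20% inhibition of 6-phosphogluconate dehydrogenase activity; inactive = the rest.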
Quantity Measured: inhibition

>>> experimental_value("CC[C@H](C)C(=O)O[C@H]1C[C@H](O)C=C2C=C[C@H](C)[C@H](CC[C@@H](O)C[C@@H](O)CC(=O)O)[C@H]21")
"-4.46% (inactive)"
>>> experimental_value("COc1ccc([C@@H]2Sc3ccccc3N(CCN(C)C)C(=O)[C@@H]2OC(C)=O)cc1")
"-12.8% (inactive)"
>>> experimental_value("NNC(=O)c1ccncc1")
"6.29% (inactive)"
>>> experimental_value("CC(=O)OCC(=O)[C@@]12OC(C)(C)O[C@@H]1C[C@H]1[C@@H]3C[C@H](F)C4=CC(=O)C=C[C@]4(C)[C@@]3(F)[C@@H](O)C[C@@]12C")
"-0.585% (inactive)"

----------
Test Description: phospholipid biosynthesis inhibitors in animal cells, primary screen, cell-based, LOPAC library, screen 4 (AID 1347384)
Assay Conditions: phospholipid biosynthesis inhibition screen, at 10 µM
Activity calls are given as the source filed them. How the calls were made is not given here.
Quantity Measured: outcome

>>> experimental_value("CN(C)C(=O)Oc1ccc[n+](C)c1")
"inactive"
>>> experimental_value("CCC1(c2ccccc2)C(=O)NCNC1=O")
"inactive"
>>> experimental_value("C[C@H](CS)C(=O)N1CCC[C@H]1C(=O)O")
"inactive"
>>> experimental_value("CN(C)CC/C=C1\\c2ccccc2COc2ccccc21")
"inactive"
>>> experimental_value("Cn1cnc([N+](=O)[O-])c1Sc1ncnc2nc[nH]c12")
"inactive"
>>> experimental_value("CC[C@H]1CN2CCc3cc(OC)c(OC)cc3[C@@H]2C[C@@H]1C[C@H]1NCCc2cc(OC)c(OC)cc21")
"inactive"
>>> experimental_value("OCCN(CCO)c1nc(N2CCCCC2)c2nc(N(CCO)CCO)nc(N3CCCCC3)c2n1")
"inactive"
>>> experimental_value("CC1=NS(=O)(=O)c2cc(Cl)ccc2N1")
"inactive"
>>> experimental_value("CC(C)[N+](C)(CCOC(=O)C1c2ccccc2Oc2ccccc21)C(C)C")
"inactive"
>>> experimental_value("COCCOC(=O)C1=C(C)NC(C)=C(C(=O)OC(C)C)C1c1cccc([N+](=O)[O-])c1 (configuration not stated)")
"inactive"
>>> experimental_value("Clc1cccc(Cl)c1NC1=NCCN1")
"inactive"
>>> experimental_value("Fc1ccc([C@@H]2CCNC[C@H]2COc2ccc3c(c2)OCO3)cc1")
"inactive"

----------
Test Description: inhibition of endothelial tube formation, primary screen, imaging, VEGF stimulated, CD31 staining, tube area, NPC library (AID 1117340)
Assay Conditions: VEGF-stimulated ADSC/ECFC co-culture, at 10 µM, stronger effect = higher value
Active and inactive are the calls of the source.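 How the source made its calls: active means compound that reduces growth-factor-driven endothelial tube area in a mixed cell culture, no cutoff stated; inactive means the rest.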
Each entry below lists one item and its recorded tube area decrease value.
Quantity Measured: tube area decrease

>>> experimental_value("CC(=O)c1ccc(OCC(=O)N2CCCCC2)cc1")
"7% (active)"
>>> experimental_value("O=P(O)(O)OCC(O)CO (centres undefined)")
"-14.2% (inactive)"
>>> experimental_value("C#Cc1ccc(-c2ccccc2F)cc1")
"7.2% (inactive)"
>>> experimental_value("OC(CCN1CCCCC1)(c1ccccc1)C1CCCCC1 (centres undefined)")
"5% (inactive)"
>>> experimental_value("CN1CCC(N(Cc2cccs2)c2ccccc2)CC1")
"-3.7% (inactive)"
>>> experimental_value("CC1(C)S[C@@H]2[C@H](NC(=O)Cc3ccccc3)C(=O)N2[C@H]1C(=O)O (tested in a mixture with another compound)")
"-6.3% (inactive)"
>>> experimental_value("O=C(CCCCCCCCC#CI)Oc1ccccc1")
"13% (inactive)"
>>> experimental_value("CCCc1ncc(C(=O)O)s1")
"9.7% (inactive)"
>>> experimental_value("Fc1ccc([C@@H]2CCNC[C@H]2COc2ccc3c(c2)OCO3)cc1")
"46.2% (active)"
>>> experimental_value("CC(C)NC(=O)c1ccc(C=O)cc1")
"-7.2% (inactive)"
>>> experimental_value("COC(=O)[C@H]1[C@H]2C[C@@H]3c4[nH]c5cc(OC)ccc5c4CCN3C[C@H]2C[C@@H](OC(=O)COc2ccc(OC)cc2)[C@@H]1OC")
"9.6% (inactive)"
>>> experimental_value("CC(=O)Oc1ccc(C(=C2CCCCC2)c2ccc(OC(C)=O)cc2)cc1")
"4.9% (inactive)"
>>> experimental_value("CC(=O)Nc1ccc(OC(=O)c2ccccc2OC(C)=O)cc1")
"-15.2% (inactive)"
>>> experimental_value("C/C(=N/NC(=O)c1ccncc1)C(=O)O")
"-6.8% (inactive)"
>>> experimental_value("COc1ccc2cc(C=O)ccc2c1")
"-8.2% (inactive)"
>>> experimental_value("CCC(=C(CC)c1ccc(OP(=O)(O)O)cc1)c1ccc(OP(=O)(O)O)cc1")
"3.7% (inactive)"
>>> experimental_value("CO/N=C(/C(=O)N[C@@H]1C(=O)N2C(C(=O)OCOC(=O)C(C)(C)C)=C(C)CS[C@H]12)c1csc(N)n1")
"-11.2% (inactive)"
>>> experimental_value("CC(C)Cc1ccc(C(C)C(=O)O)cc1 (centres undefined)")
"0.9% (inactive)"
>>> experimental_value("C[N+]1(CC2COC(c3ccccc3)(c3ccccc3)O2)CCCCC1 (centres undefined)")
"-12.8% (inactive)"
>>> experimental_value("CC[N+](CC)(CC)CCOC(=O)C(C1CCCC1)C1CCCC1")
"8.3% (inactive)"
>>> experimental_value("O=c1[nH]c2ccccc2c(=O)n1CCCl")
"-18.9% (inactive)"
>>> experimental_value("COc1ccc2nc(NC(=O)Nc3ccccc3)sc2c1")
"2.4% (inactive)"
>>> experimental_value("Oc1ccc(/C=C/c2cc(O)cc(O)c2)cc1")
"56.1% (active)"
>>> experimental_value("Cc1ccccc1N1CCN(CCc2nnc3n2CCCC3)CC1")
"-13.2% (inactive)"

----------
Test Description: survival rescue of mitochondrial mutant cells in low glucose, primary screen, MELAS cybrids, Rieske KO mouse fibroblasts, CellTiter-Glo (AID 1508586);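 note: z relative to plate mean and SD of compound and empty wells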
Assay Conditions: Rieske KO mouse fibroblast survival, CellTiter-Glo 72 h
Quantity Measured: z-score

>>> experimental_value("COc1cccc(-n2cnc3c(N/N=C/c4ccncc4)ncnc32)c1")
0.0192
>>> experimental_value("O=S1CCN(Cc2ccc(-c3ccc4ncnc(Nc5ccc(OCc6ccccc6)c(F)c5)c4c3)o2)CC1")
-0.276
>>> experimental_value("CCc1nccc2c1nc(-c1nonc1N)n2CC")
-0.326
>>> experimental_value("CN(C)CCOc1ccc(-c2cc(-c3ccc4c(c3)CC/C4=N/O)c(-c3ccncc3)o2)cc1")
-0.429
>>> experimental_value("Fc1cccc(COc2ccc(Nc3ncnc4sc(-c5cccs5)cc34)cc2Cl)c1")
-0.496
>>> experimental_value("CCCN1CCC=C(c2ccc(Nc3nc(Nc4ccccc4C(N)=O)c4cc[nH]c4n3)c(C)c2)C1")
0.0526
>>> experimental_value("CCS(=O)(=O)c1ccc(OC)c(Nc2ncc(-c3ccccc3Cl)o2)c1")
-0.145
>>> experimental_value("Cc1nc(-c2ccccc2)n2nc(NCCCN3CCOCC3)ncc12")
-0.21
>>> experimental_value("O=S(=O)(CCNCc1ccc(-c2ccc3ncnc(Nc4ccc(OCc5cccc(F)c5)c(Cl)c4)c3c2)o1)c1ccccc1")
-0.45
>>> experimental_value("Cc1ccc(C(=O)NC(C)C)cc1-c1ccc(C(=O)NCC2CC2)cc1")
0.189
>>> experimental_value("Fc1ccc(-c2ncn(C3CCNCC3)c2-c2ccnc(Oc3cccc(C(F)(F)F)c3)n2)cc1")
-0.412
>>> experimental_value("CC(=O)[C@H]1CC[C@H]2[C@@H]3C[C@H](C)C4=CC(=O)CC[C@]4(C)[C@H]3[C@@H](O)C[C@]12C")
1.33
>>> experimental_value("COc1cc(Nc2nccc(-c3cnn4ncccc34)n2)cc(OC)c1")
0.69
>>> experimental_value("CS(=O)(=O)c1ccc(Oc2nccc(-c3c(-c4ccc(F)cc4)ncn3C3CCNCC3)n2)cc1")
-0.376
>>> experimental_value("CO[C@@]1(NC(=O)Cc2cccs2)C(=O)N2C(C(=O)O)=C(COC(N)=O)CS[C@@H]21")
-0.518
>>> experimental_value("NC(=O)c1sc(-n2cnc3ccc(C(F)(F)F)cc32)cc1OCc1ccccc1Br")
-0.246
>>> experimental_value("CC(C)NCC(O)c1cc(O)cc(O)c1 (stereo not given)")
0.459
>>> experimental_value("COc1cc2ncn(-c3cc(O[C@H](C)c4ccccc4Cl)c(C(N)=O)s3)c2cc1OC")
5.68
>>> experimental_value("Fc1cccc(COc2ccc(Nc3ncnc4cc(-c5ccc[nH]5)sc34)cc2Cl)c1")
-0.0837
>>> experimental_value("CC(C)c1ccc2c(N=Nc3ccc(S(N)(=O)=O)cc3)c(O)[nH]c2c1")
-0.254
